- PROCEDURE SUMMARY: Sirolimus whole blood pharmacokinetics
- Assay type: in vivo, human
- CONDITION DESCRIPTION: human, whole blood, oral, 5 mg, T1/2, sirolimus 5 mg, without ketoconazole, n=6
PROPERTY NAME: half-life
Quote the value and follow it with the unit of measurement.

Determine its reported half-life: CO[C@H]1C[C@@H]2CC[C@@H](C)[C@@](O)(O2)C(=O)C(=O)N2CCCC[C@H]2C(=O)O[C@H]([C@H](C)C[C@@H]2CC[C@@H](O)[C@H](OC)C2)CC(=O)[C@H](C)/C=C(\C)[C@@H](O)[C@@H](OC)C(=O)[C@H](C)C[C@H](C)/C=C/C=C/C=C/1C [Sirolimus]
35 h
